System: Rhoma betae
TEST DETAILS: Inhibition of phytopathogenic fungi growth, laboratory test on potato-dextrose agar
Format: cell-based
APPLIED CONDITIONS: active principle 0.01 % by mass in potato-dextrose agar
The entries below are paired with their reported Inhibition of growth of phytopathogenic fungi colonies, % Rhoma betae test laboratory.
ASSAY ENDPOINT: Inhibition of growth of phytopathogenic fungi colonies, % Rhoma betae test laboratory (%)

| MOLECULE | OBSERVED VALUE |
| --- | --- |
| O=C(NP(=O)(Nc1ccc(Cl)cc1Cl)Nc1ccc(Cl)cc1Cl)c1ccc(Br)cc1 | 64 |
| CN(C)C(=S)SSC(=S)N(C)C [tetramethylthi-uram disulphide, tetramethylthiuram disulphide, reference compound] | 60 |
| O=C(NP(=O)(Nc1ccc(Cl)cc1[N+](=O)[O-])Nc1ccc(Cl)cc1[N+](=O)[O-])c1ccc(Br)cc1 | 100 |
| O=C(NP(=O)(Nc1ccc(Br)cc1)Nc1ccc(Br)cc1)c1ccc(Br)cc1 | 100 |
